Assay: Phase I trial pharmacokinetics in human plasma
Type: in vivo
Conditions: human, plasma, oral, 3 mg, AUC, TAK-228 run-in dose (single agent), 3 mg cohort
PROPERTY: AUC (ng·h/mL)
Please state the figure in ng·h/mL; there is no need to write the unit.

AUC reading for "CC(C)n1nc(-c2ccc3oc(N)nc3c2)c2c(N)ncnc21" : 154

---

Experiment: Phase I trial pharmacokinetics in human plasma
Type: in vivo
Conditions: human, plasma, oral, 2 mg, Cmax, TAK-228 run-in dose (single agent), 2 mg cohort
PROPERTY: Cmax (ng/mL)
Reply with just the number (in ng/mL).

GET /value?item= CC(C)n1nc(-c2ccc3oc(N)nc3c2)c2c(N)ncnc21 [TAK-228] &field=Cmax returns 24.2
